Read-out: Alpha-fetoprotein (AFP) gene, AFP (gene 174)
EXPERIMENT_SUMMARY: LTEA_HepaRG_AFP: Life Technologies and Expression Analysis (LTEA) Assay for Alpha-fetoprotein (AFP) gene using HepaRG (AID 2283472)
ASSAY_CONDITIONS: mRNA level, 48 h; actives raise or lower the signal
The source made the active and inactive calls. The calls were made as follows: active = hit-call score of the fitted dose curve at least 0.9, where 1 is the maximum; inactive = score below 0.9.
Outcomes: Yes for active, No for inactive

compound=COc1cc(C=O)ccc1O label_class=No
compound=Cc1nc(C)nc(N2C[C@@H](C)N(c3ccnc([C@@H](C)O)n3)[C@@H](C)C2)n1 label_class=No
compound=COc1cc(S(=O)(=O)O)c(C)cc1N=Nc1c(O)ccc2cc(S(=O)(=O)O)ccc12 label_class=No
compound=CCCCN(CCCC)CCCC label_class=No
compound=O=c1[nH]cc(F)c(=O)[nH]1 label_class=No
compound=NCCO label_class=No
compound="CCCCC(CC)COC(=O)CC(C(=O)OCC(CC)CCCC)S(=O)(=O)O (centres undefined)" label_class=No
compound=Cc1ccc(C)c(O)c1C label_class=No
compound=CC1=C(/C=C/C(C)=C/C=C/C(C)=C/CO)C(C)(C)CCC1 label_class=No
compound=CCCCCCOCCO label_class=No
compound=Cc1ccc(C)c(C)c1 label_class=No
compound=CC1(C)NC(=O)NC1=O label_class=No
compound=CCCCCCC(=O)OCC label_class=No
compound=O=c1c(O)c(-c2ccc(O)c(O)c2)oc2cc(O)cc(O)c12 label_class=Yes
